Viability Fold Change reference
tested on: HT29 RAMS11 overexpressing cells; assay: High-throughput viability assay (resazurin), 119 FDA-approved anticancer drugs, RAMS11 overexpressing cells (Clone1, Clone2); details: OE1 (RAMS11 overexpression clone 1), 1 uM drug, 72 h, vs empty vector control

Here are 4 molecules together with their reported answers.
molecule	Viability Fold Change
Cc1cn(-c2cc(NC(=O)c3ccc(C)c(Nc4nccc(-c5cccnc5)n4)c3)cc(C(F)(F)F)c2)cn1	0.749
C#CCC(Cc1cnc2nc(N)nc(N)c2n1)c1ccc(C(=O)N[C@@H](CCC(=O)O)C(=O)O)cc1 (some centres unmarked) [Pralatrexate]	0.9216
C=C1C[C@@H]2[C@H](CC[C@]3(C)C(=O)CC[C@@H]23)[C@@]2(C)C=CC(=O)C=C12	0.981
NCC(=O)CCC(=O)O	0.9655

Moving on to another molecule below.
Viability Fold Change reading for COc1cc(Nc2c(C#N)cnc3cc(OCCCN4CCN(C)CC4)c(OC)cc23)c(Cl)cc1Cl : 1.013
